target: T1, human MSLN-FL-his protein (human, UniProt Q13421 296-580); test: ELISA on coated antigen, antibody 0.01 nM
T1 construct: Made in HEK293E cells, purified on nickel column; it is put last here; also called human MSLN full-length protein; hMSLN-FL-his; not shown: His tag
T1 sequence (Q13421 other isoform, or with tags, fused parts or gaps): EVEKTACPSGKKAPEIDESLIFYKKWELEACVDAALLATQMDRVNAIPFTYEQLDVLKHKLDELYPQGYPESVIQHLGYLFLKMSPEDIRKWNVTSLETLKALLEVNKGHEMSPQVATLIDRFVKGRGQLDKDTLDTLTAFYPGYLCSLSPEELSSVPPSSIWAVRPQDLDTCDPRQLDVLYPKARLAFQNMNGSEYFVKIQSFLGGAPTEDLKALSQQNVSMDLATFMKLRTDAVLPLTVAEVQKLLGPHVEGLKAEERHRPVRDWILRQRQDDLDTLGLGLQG
Strictly below 0.4 OD in OD450: Yes. Otherwise: No.

Answer whether the binder S009-F8-4.5 (antibody, human IgG1, kappa, V domains shown, Human-murine chimeric antibody, human IgG1 heavy and kappa light constant regions) VH: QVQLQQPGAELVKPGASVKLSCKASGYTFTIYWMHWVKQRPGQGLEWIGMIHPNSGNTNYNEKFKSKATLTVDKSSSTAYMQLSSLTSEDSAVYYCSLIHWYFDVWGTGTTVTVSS VL: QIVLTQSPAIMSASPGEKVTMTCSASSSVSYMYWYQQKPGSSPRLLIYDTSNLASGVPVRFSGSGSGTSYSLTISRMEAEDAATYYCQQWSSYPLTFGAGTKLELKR has OD450 strictly less than 0.4 OD
Yes

Answer whether the binder S009-F8-33.12 (antibody, human IgG1, kappa, V domains shown, Human-murine chimeric antibody, human IgG1 heavy and kappa light constant regions) VH: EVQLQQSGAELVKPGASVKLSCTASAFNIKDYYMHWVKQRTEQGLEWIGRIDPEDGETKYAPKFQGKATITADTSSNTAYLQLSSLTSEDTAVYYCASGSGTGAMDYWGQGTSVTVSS VL: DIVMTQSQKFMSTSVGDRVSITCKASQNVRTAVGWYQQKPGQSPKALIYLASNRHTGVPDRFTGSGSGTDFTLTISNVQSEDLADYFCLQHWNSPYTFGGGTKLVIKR has OD450 strictly less than 0.4 OD
No

Answer whether the binder S009-F8-18.9 (antibody, human IgG1, kappa, V domains shown, Human-murine chimeric antibody, human IgG1 heavy and kappa light constant regions) VH: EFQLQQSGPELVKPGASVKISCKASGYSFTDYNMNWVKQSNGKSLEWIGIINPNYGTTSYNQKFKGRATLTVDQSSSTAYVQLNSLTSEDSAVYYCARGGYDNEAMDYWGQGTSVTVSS VL: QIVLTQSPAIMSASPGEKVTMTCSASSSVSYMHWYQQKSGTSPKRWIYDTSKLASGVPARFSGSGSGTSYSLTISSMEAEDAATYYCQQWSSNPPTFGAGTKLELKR has OD450 strictly less than 0.4 OD
No

Answer whether the binder S009-F8-29.1 (antibody, human IgG1, kappa, V domains shown, Human-murine chimeric antibody, human IgG1 heavy and kappa light constant regions) VH: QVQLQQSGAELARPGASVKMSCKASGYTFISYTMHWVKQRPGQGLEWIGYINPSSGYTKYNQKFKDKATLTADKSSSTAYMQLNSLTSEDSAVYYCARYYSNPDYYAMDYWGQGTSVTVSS VL: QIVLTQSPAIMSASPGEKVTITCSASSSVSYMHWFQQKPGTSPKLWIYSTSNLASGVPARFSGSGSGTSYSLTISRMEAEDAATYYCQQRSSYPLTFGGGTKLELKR has OD450 strictly less than 0.4 OD
No

Answer whether the binder S009-F8-32.3 (antibody, human IgG1, kappa, V domains shown, Human-murine chimeric antibody, human IgG1 heavy and kappa light constant regions) VH: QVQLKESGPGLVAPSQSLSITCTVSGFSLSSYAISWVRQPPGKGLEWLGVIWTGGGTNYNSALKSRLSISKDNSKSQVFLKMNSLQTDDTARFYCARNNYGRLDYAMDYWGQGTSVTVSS VL: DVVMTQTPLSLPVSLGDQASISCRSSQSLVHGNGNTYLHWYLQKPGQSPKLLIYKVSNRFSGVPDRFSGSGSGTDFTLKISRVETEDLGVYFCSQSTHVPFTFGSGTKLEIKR has OD450 strictly less than 0.4 OD
No

Answer whether the binder S009-F8-15.19 (antibody, human IgG1, kappa, V domains shown, Human-murine chimeric antibody, human IgG1 heavy and kappa light constant regions) VH: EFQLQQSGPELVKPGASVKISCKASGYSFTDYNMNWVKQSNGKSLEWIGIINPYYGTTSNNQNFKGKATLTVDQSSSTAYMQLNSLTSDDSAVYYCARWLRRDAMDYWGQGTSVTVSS VL: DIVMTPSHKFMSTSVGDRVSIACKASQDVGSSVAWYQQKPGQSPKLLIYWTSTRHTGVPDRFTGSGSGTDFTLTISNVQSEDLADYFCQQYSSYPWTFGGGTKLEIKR has OD450 strictly less than 0.4 OD
Yes

Answer whether the binder S009-F8-5.15 (antibody, human IgG1, kappa, V domains shown, Human-murine chimeric antibody, human IgG1 heavy and kappa light constant regions) VH: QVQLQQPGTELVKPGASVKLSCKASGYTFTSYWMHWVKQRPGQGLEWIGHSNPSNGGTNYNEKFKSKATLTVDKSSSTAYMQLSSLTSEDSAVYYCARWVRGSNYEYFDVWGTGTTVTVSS VL: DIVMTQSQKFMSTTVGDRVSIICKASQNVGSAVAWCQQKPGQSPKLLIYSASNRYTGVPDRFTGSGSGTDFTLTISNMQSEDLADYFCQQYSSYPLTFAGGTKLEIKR has OD450 strictly less than 0.4 OD
Yes

Answer whether the binder S009-F8-12.13 (antibody, human IgG1, kappa, V domains shown, Human-murine chimeric antibody, human IgG1 heavy and kappa light constant regions) VH: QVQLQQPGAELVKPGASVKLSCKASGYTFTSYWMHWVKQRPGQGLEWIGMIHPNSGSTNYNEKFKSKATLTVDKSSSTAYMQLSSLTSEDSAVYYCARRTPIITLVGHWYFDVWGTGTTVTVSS VL: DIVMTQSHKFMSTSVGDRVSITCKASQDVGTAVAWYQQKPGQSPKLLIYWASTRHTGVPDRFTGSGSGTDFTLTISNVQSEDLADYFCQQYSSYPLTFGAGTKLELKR has OD450 strictly less than 0.4 OD
No

Answer whether the binder S009-F8-27.1 (antibody, human IgG1, kappa, V domains shown, Human-murine chimeric antibody, human IgG1 heavy and kappa light constant regions) VH: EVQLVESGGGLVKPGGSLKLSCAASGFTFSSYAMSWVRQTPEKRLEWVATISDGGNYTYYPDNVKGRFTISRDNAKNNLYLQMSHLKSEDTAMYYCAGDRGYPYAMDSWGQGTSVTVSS VL: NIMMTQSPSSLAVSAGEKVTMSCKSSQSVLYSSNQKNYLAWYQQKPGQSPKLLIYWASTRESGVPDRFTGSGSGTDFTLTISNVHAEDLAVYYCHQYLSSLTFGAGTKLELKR has OD450 strictly less than 0.4 OD
Yes
